Biological target: Monoamine oxidase B (MAO-B) (Homo sapiens)
Sequence (P27338 whole entry): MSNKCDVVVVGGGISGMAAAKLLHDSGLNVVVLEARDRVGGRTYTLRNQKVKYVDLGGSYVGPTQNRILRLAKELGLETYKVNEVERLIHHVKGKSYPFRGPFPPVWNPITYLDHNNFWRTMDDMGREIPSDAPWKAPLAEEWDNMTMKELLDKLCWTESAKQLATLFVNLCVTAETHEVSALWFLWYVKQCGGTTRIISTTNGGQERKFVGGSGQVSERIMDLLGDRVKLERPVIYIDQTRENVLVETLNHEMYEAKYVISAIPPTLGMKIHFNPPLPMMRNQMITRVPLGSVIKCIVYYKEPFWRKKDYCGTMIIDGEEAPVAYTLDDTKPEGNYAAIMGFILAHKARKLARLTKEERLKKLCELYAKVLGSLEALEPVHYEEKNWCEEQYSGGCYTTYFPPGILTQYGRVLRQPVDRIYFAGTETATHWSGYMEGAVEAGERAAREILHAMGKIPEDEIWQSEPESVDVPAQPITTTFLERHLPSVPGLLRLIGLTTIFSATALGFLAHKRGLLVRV
Test: Inhibition of Monoamine Oxidase MAO-B at 10.0 µM in the Eurofins Panlabs Safety Screen
Conditions: compound concentration 10 uM
Recorded endpoint: inhibition at 10 µM (%)
Field: numeric (%). Do not append units.

In: # query: inhibition at 10 µM of entry O=C1NCCCC1N1Cc2cc(C3CCN(C(=O)CCCCCN4CCC(c5ccc(Oc6nn7cnnc7c7c6CCCC7)cc5)CC4)CC3)ccc2C1=O (configuration not stated)
Out: 30

In: Now try O=C1CCC(N2Cc3cc(C4CCN(C(=O)CCCCCN5CCC(c6ccc(Oc7nn8cnnc8c8c7CCCC8)cc6)CC5)CC4)ccc3C2=O)C(=O)N1 (configuration not stated) .
Out: 34
